Each recorded value in this set is attributed to ChEMBL document CHEMBL1681689.

target: Sodium-dependent dopamine transporter (Homo sapiens)
Sequence (Q01959 whole entry): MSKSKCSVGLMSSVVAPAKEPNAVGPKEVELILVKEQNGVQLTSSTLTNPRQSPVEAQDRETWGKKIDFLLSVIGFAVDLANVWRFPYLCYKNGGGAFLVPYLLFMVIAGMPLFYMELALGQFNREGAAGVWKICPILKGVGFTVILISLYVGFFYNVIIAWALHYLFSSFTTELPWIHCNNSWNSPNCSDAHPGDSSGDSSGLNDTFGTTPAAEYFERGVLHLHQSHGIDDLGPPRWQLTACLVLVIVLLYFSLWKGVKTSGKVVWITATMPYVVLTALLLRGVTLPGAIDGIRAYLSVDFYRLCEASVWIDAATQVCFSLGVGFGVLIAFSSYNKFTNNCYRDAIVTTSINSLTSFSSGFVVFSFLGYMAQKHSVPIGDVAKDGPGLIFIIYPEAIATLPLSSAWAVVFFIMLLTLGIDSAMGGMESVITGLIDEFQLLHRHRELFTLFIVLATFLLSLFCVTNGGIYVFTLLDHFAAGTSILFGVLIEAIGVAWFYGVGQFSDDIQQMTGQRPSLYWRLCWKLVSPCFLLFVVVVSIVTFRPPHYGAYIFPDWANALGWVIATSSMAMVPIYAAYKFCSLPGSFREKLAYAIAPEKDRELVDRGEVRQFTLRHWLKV
pIC50: −log10 of the molar value.
property label: pIC50

molecule: CC(N)C1(c2ccc(OC(C)(C)C)cc2)CCCCC1 (stereo unspecified)
observed measurement: 5.82

====

assay: Half life in mouse liver microsomes by in vitro metabolic stability assay; format: ADME, Microsome; settings: microsomes
Catalogue of compounds with associated log10(t1/2)
property label: log10(t1/2) (log10 of the value in min)

compound: CC(N(C)C)C1(c2ccc3ccccc3c2)CCCCC1 (single isomer, unassigned; form 1)
log10(t1/2): 1.28

compound: CNC(C)C1(c2ccc(Cl)c(Cl)c2)CCCCC1 (stereo in doubt; 24)
log10(t1/2): 1.72

compound: CNC(C)C1(c2ccc3ccccc3c2)CCCCC1 (single isomer, unassigned; enantiomer 2)
log10(t1/2): 1.04

compound: CC(N)C1(c2ccc(Cl)c(Cl)c2)CCCCC1 (single isomer, unassigned; enantiomer 1)
log10(t1/2): 1.92

compound: CNC(C)C1(c2ccc(Cl)c(Cl)c2)CCCCC1 (single isomer, unassigned)
log10(t1/2): 1.73

compound: CNC(C)C1(c2ccc(Cl)c(Cl)c2)CCCCC1 (racemic)
log10(t1/2): 2.19

compound: CC(N(C)C)C1(c2ccc3ccccc3c2)CCCCC1 (single isomer, unassigned; enantiomer 2)
log10(t1/2): 1.36
